# pKi per entry
# Measurement target: T1, rat hypothalamic Y5 receptor (rat)
# T1 chain: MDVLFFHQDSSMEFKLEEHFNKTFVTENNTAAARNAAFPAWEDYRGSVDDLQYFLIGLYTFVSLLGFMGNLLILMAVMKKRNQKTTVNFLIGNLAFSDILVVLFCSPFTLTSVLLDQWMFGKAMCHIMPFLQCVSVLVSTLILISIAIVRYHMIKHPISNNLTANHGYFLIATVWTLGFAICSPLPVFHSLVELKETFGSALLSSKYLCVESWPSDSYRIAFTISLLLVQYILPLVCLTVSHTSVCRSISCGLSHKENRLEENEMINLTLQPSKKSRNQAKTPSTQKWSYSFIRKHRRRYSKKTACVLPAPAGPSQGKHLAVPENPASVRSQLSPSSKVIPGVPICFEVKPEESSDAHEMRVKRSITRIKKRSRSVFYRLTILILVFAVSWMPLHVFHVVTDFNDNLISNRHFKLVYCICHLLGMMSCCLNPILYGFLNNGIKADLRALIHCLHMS
# Measurement protocol: 125I-PYY displacement, COS-7 membranes
By convention, pKi is the negative base-10 log of a molar concentration.

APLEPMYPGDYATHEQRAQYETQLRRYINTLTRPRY [rat PP] = 6.74

Turning now to a further record.
Entry under review: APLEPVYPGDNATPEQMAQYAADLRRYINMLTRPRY [human PP] . Reported pKi?
8.30

Origin of the recorded values: patent US20020103123A1
